Study system: T1, Human CD19-his protein (human, UniProt P15391 20-291)
T1 construct: bought protein; also called recombinant human CD19-His; CD19 full-length protein; not shown: His tag
T1 sequence (looked up): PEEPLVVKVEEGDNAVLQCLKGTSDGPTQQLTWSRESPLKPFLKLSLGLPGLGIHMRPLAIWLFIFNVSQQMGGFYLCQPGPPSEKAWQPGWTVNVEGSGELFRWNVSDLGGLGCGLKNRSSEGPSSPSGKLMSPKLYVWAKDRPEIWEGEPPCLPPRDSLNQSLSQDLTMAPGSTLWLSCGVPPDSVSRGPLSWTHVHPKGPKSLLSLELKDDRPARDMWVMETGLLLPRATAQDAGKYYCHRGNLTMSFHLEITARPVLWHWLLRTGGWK
Method description: ELISA, coated human CD19-His
// reported OD450 at 0.01 nM for each item listed
// note: answer is a bare numeric in OD450

# Binder, OD450 at 0.01 nM, OD450
data = [
    ("F3.121.4-L2H2 (antibody, mouse IgG1, kappa, V domains shown, humanized antibody of F3.121.4, VL2+VH2, murine IgG1 constant regions) VH: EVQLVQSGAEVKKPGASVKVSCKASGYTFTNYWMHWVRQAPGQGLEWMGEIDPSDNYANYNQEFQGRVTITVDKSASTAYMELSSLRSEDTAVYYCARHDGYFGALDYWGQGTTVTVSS VL: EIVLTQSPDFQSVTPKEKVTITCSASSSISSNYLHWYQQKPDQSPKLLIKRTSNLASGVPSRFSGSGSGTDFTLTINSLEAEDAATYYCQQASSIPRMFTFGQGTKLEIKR", 0.37),
    ("F3.121.4 (antibody, human IgG1, V domains shown, human-murine chimeric antibody, human IgG1 constant; also called chimeric antibody F3.121.4) VH: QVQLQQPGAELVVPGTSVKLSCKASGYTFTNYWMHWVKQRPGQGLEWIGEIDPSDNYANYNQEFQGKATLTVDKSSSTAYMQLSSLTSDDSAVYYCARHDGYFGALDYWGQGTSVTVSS VL: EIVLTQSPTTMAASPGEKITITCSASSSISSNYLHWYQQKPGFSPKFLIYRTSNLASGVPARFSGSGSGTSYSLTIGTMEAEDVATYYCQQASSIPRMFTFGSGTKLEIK", 0.11),
    ("F3.121.4-L2H1 (antibody, mouse IgG1, kappa, V domains shown, humanized antibody of F3.121.4, VL2+VH1, murine IgG1 constant regions) VH: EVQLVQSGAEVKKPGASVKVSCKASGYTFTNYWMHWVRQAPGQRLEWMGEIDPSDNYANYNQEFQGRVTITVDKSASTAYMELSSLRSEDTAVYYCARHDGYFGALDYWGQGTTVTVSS VL: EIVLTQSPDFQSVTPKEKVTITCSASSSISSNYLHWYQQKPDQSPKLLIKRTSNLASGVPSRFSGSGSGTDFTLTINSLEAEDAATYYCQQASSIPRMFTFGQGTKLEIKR", 0.38),
    ("F3.121.4-L3H2 (antibody, mouse IgG1, kappa, V domains shown, humanized antibody of F3.121.4, VL3+VH2, murine IgG1 constant regions) VH: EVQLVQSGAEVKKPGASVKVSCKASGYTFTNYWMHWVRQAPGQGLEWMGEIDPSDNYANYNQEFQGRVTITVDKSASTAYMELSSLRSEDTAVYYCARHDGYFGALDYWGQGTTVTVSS VL: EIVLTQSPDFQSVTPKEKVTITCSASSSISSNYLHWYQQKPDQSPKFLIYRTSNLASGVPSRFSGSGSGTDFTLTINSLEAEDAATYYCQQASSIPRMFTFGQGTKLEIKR", 0.42),
]

Query :: I would be grateful if you could share the reported OD450 at 0.01 nM for F3.121.4-L1H2 (antibody, mouse IgG1, kappa, V domains shown, humanized antibody of F3.121.4, VL1+VH2, murine IgG1 constant regions) VH: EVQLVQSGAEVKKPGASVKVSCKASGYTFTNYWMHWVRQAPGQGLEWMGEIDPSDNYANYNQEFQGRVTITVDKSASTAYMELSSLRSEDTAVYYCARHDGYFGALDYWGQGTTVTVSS VL: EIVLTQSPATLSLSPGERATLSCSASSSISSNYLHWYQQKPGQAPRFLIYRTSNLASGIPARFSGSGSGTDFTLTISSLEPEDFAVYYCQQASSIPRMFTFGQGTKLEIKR .
Result :: 0.39

Query :: Item under review: F3.121.4-L1H1 (antibody, mouse IgG1, kappa, V domains shown, humanized antibody of F3.121.4, VL1+VH1, murine IgG1 constant regions) VH: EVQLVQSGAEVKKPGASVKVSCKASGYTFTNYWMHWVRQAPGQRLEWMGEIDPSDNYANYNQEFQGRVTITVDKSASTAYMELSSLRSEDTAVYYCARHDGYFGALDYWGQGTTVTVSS VL: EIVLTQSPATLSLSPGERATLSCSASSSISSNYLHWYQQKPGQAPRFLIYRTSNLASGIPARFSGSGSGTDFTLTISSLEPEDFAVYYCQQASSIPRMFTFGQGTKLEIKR . Reported OD450 at 0.01 nM?
Result :: 0.44

Query :: Quick one: OD450 at 0.01 nM of F3.121.4-L3H1 (antibody, mouse IgG1, kappa, V domains shown, humanized antibody of F3.121.4, VL3+VH1, murine IgG1 constant regions) VH: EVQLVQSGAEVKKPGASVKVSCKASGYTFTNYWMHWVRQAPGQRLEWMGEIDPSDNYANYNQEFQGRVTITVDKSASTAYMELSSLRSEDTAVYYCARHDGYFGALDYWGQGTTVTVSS VL: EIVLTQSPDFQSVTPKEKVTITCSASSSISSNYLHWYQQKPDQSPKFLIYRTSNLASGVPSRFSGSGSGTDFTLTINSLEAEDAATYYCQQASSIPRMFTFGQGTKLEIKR ?
Result :: 0.39
